The values you see were collected from patent US5470854A.

System: uterus of infantile mice
PROTOCOL DETAILS: Anti-uterotrophic test (in-vivo test on infantile mice)
CONDITIONS USED: 25 μg/animal s.c., simultaneous 0.4 μg oestron/animal/day
EXPERIMENTAL ENDPOINT: anti-uterotrophic test, inhibition (%)
Only the number, expressed in %, is required.

Oc1ccc(-c2oc3cc(O)ccc3c2CCCCCCN2CCCCC2)cc1 [Compound 68b] ... 7
CCc1c(-c2ccc(O)cc2)oc2ccc(O)cc12 [Compound 62a] ... 22
Oc1ccc(-c2sc3cc(O)ccc3c2CCCCCCN2CCCCC2)cc1 [Compound 119b] ... 65
Cc1c(-c2ccc(O)cc2)sc2ccc(O)cc12 [Compound 102a] ... 68
CCCc1c(-c2ccc(O)cc2)sc2cc(O)ccc12 [Compound 106b] ... 39
Oc1ccc(-c2oc3ccc(O)cc3c2CCCCCCN2CCCCC2)cc1 [Compound 68a] ... 56
CCc1c(-c2ccc(O)cc2)sc2cc(O)ccc12 [Compound 104b] ... 33

Problem: Retrieve anti-uterotrophic test, inhibition measured for Cc1c(-c2ccc(O)cc2)sc2cc(O)ccc12 [Compound 102b] and print it.
Solution: 30
